# credit: PubChem BioAssay (NCI)

Examples of compounds with documented TGI follow.
- Test system: CAKI-1 renal
- assay_info: NCI tumour cell line growth inhibition, 48 h

[
  {
    "compound": "CNC(=S)/N=C(\\N)N(C)C",
    "TGI": "> 100 µM"
  },
  {
    "compound": "COC(=O)C(Cc1nc2ccccc2[nH]c1=O)C(NO)C(=O)Nc1c(Cl)cc([N+](=O)[O-])cc1Cl (stereo unspecified)",
    "TGI": "> 100 µM"
  }
]

Query: Please tell me the measured TGI for NNC(=O)c1c(SCc2ccccc2)nc2c3ccccc3ccn12 ; system: CAKI-1 renal.
Reply: 87.9 µM

Query: Given O=C(NC(Cc1ccccc1)(Cc1ccc(O)cn1)C(=O)O)c1ccccc1 (stereo unspecified) , report its TGI on CAKI-1 renal.
Reply: > 100 µM

Query: // output TGI; input O=C(Nc1cc(Cl)c(Cl)cc1Cl)C(=O)C1C(=O)NC(=S)NC1=O ; system CAKI-1 renal
Reply: > 100 µM

Query: Find TGI for CCOC(=O)C(=O)Nc1ccccc1CC on CAKI-1 renal and write it down.
Reply: > 100 µM

---

- Tested on: MDA-MB-231 breast
- assay_info: NCI tumour cell line growth inhibition, 48 h
In this section, each of the molecules is paired with its reported TGI.
Give the quantity in µM, number only.

// known answers, use as guide
[
  {
    "molecule": "COc1ccc(C(=O)c2cc(OC)c(OC)c(OC)c2)cc1/C=C/C(=O)c1ccc(F)cc1",
    "unit_of_measure": "µM",
    "value_observed": 84.5
  },
  {
    "molecule": "C=C(C)[C@H]1Cc2c(ccc3c2O[C@@H]2COc4cc(OC)c(OC)cc4[C@@H]2C3=O)O1",
    "unit_of_measure": "µM",
    "value_observed": 44.7
  },
  {
    "molecule": "CC(=O)OC1C(Oc2c(C)cc3c(c2O)[C@@H](C)CC[C@@H]3[C@@H](C)CCC=C(C)C)OCC(O)C1O (stereo not given in full)",
    "unit_of_measure": "µM",
    "value_observed": 38.7
  },
  {
    "molecule": "CN(C)CCNc1ccc(CO)c2oc3ccc(O)cc3c(=O)c12",
    "unit_of_measure": "µM",
    "value_observed": 37.7
  },
  {
    "molecule": "COC(=O)Nc1nc2ccc(S(=O)(=O)SC)cc2[nH]1",
    "unit_of_measure": "µM",
    "value_observed": 40.1
  }
]

Query: # assay system MDA-MB-231 breast: give TGI of COc1cc2c3c(n(CCCN)c(=O)c2cc1OC)-c1ccc(C#N)cc1C3=O
Reply: 29.3

---

- System: LOX IMVI melanoma
- assay_info: NCI tumour cell line growth inhibition, 48 h
In this section we review reported TGI values for a set of compounds.

Sample answers from the record:
[
  {
    "compound": "C/C(=N\\Nc1ccc(Cl)cn1)c1ccc2ccccc2n1",
    "TGI": "> 100 µM"
  },
  {
    "compound": "CCNCCNc1cc(-c2ccc(C(F)(F)F)cc2)c(C#N)c2nc3ccccc3n12",
    "TGI": "0.382 µM"
  },
  {
    "compound": "CC1(C)C(=O)/C(=C\\c2cccnc2)C[C@]2(C)[C@H]3CC[C@@H]4[C@H]5[C@H](C(=O)/C=C/c6cccnc6)CC[C@]5(C(=O)O)CC[C@@]4(C)[C@]3(C)CC[C@@H]12",
    "TGI": "3.6 µM"
  },
  {
    "compound": "CCCC(CCC)NCC(O)c1cc(-c2ccc(C(F)(F)F)cc2)nc(C(F)(F)F)c1 (centres undefined)",
    "TGI": "2.97 µM"
  },
  {
    "compound": "Cc1cc(NS(=O)(=O)c2ccc(Nc3c4ccccc4nc4c(C(=O)N5CCN(CCO)CC5)cccc34)cc2)no1",
    "TGI": "> 100 µM"
  }
]

Query: Indicate the recorded TGI value for this compound: COc1ccc(C(=O)c2cc(C)c(OC)c(C)c2)c(OC)c1O
Reply: > 100 µM

Query: Provide only the value of recorded TGI for CCOC(=O)CCC(=O)C1c2cccc(O)c2C(=O)c2c(O)cc(C)cc21 (centres undefined)
Reply: 1.97 µM

Query: Annotate the compound c1ccc(Sc2ccc(Cc3nc4cc5ccccc5cc4[nH]3)cc2)cc1 with its measured TGI.
Reply: 29.1 µM

Query: Please report the measured TGI for CCCCNC1CCCCC[C@H]1O (some centres undefined)
Reply: > 100 µM
